Numbers sourced from PubChem BioAssay (EPA / NIEHS).

Read-out: Cytochrome P450 4A22 (Homo sapiens)
assayDetails: LTEA_HepaRG_CYP4A22: Life Technologies and Expression Analysis (LTEA) Assay for Cytochrome P450 4A22 (CYP4A22) using HepaRG (AID 2283495)
particulars: mRNA level, 48 h; actives raise or lower the signal
Activity calls are given as the source filed them. Rule for the calls: active = hit-call score of the fitted dose curve at least 0.9, where 1 is the maximum; inactive = score below 0.9.
measuredProperty: AC50

These recorded examples may help you get a feel for the data.
CCOc1cc(Oc2ccc(C(F)(F)F)cc2Cl)ccc1[N+](=O)[O-]    39.1 µM (active)
CC(C)Oc1cc(-n2nc(C(C)(C)C)oc2=O)c(Cl)cc1Cl    50 µM (active)
CC1=C(C(=O)Nc2ccccc2)SCCO1    inactive
COP(N)(=O)SC (stereo unspecified)    inactive
Cc1c(F)c(F)c(COC(=O)C2C(/C=C(\Cl)C(F)(F)F)C2(C)C)c(F)c1F (stereo unspecified)    inactive

Give AC50 for CCOP(=S)(OCC)SCn1c(=O)oc2cc(Cl)ccc21
inactive

Give AC50 for COc1nc(NC(C)C)nc(NC(C)C)n1
inactive

Give AC50 for CCCC1COC(Cn2cncn2)(c2ccc(Cl)cc2Cl)O1 (stereo unspecified)
31.7 µM (active)

* * *

assayDetails: CEETOX_H295R_OHPROG: CeeTox H295R High-throughput Steroidogenesis Assay for OH-Progesterone (OHPROG) (AID 2283435)
particulars: actives raise or lower the signal
The source made the active and inactive calls. The calls were made as follows: active = hit-call score of the fitted dose curve at least 0.9, where 1 is the maximum; inactive = score below 0.9.
Field 'call' accepts true for active, false for inactive

CCNc1nc(Cl)nc(NC(C)C)n1    false
CCOc1cc(Oc2ccc(C(F)(F)F)cc2Cl)ccc1[N+](=O)[O-]    false
CCCC1COC(Cn2cncn2)(c2ccc(Cl)cc2Cl)O1 (centres undefined)    false
CCNc1nc(Cl)nc(NCC)n1    false
CNC(=S)S    false
CCOC(=O)C(Cl)Cc1cc(-n2nc(C)n(C(F)F)c2=O)c(F)cc1Cl (centres undefined)    true
C=CC1(C)OC(=O)N(c2cc(Cl)cc(Cl)c2)C1=O (centres undefined)    true
N#CC(CCc1ccc(Cl)cc1)(Cn1cncn1)c1ccccc1 (centres undefined)    true
Cc1c(F)c(F)c(COC(=O)C2C(/C=C(\Cl)C(F)(F)F)C2(C)C)c(F)c1F (centres undefined)    false
CON(C)C(=O)Nc1ccc(Cl)c(Cl)c1    false

Each compound tested received a call. Report the one for COc1nc(NC(C)C)nc(NC(C)C)n1 .
false

Each compound tested received a call. Report the one for Cc1cc(Cl)ccc1OCC(=O)O .
false

Each compound tested received a call. Report the one for CCON=C(CC)C1=C(O)CC(c2c(C)cc(C)cc2C)CC1=O (centres undefined) .
false

Each compound tested received a call. Report the one for CC1COC(Cn2cncn2)(c2ccc(Oc3ccc(Cl)cc3)cc2Cl)O1 (centres undefined) .
true

* * *

Test system: frog Estrogen Receptor (ER), gene 398734
assayDetails: ATG_frER1_XSP2: Attagene TRANS-FACTORIAL Multi-Species (XSP2) HepG2 Assay for frog Estrogen Receptor (ER) (AID 2283821);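 note: hits raise reporter mRNA above DMSO baseline so potency means agonist or activator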
Experimental: ATG_XSP2_multi-species_TRANS is a cell-based, multiplexed assay created by modifying the existing Attagene TRANS-FACTORIAL system to include a panel of nuclear receptors from some or all the following species: human (Homo sapiens), mouse (Mus musculus), frog (Xenopus laevis), zebrafish (Danio rerio), chicken (Gallus gallus), and turtle (Chrysemys picta). The ECOTOX-FACTORIAL format uses HepG2, a human liver cell line, with measurements taken at 24 hours after chemical dosing in a 24-well plate. […]
Inconclusive results are not listed. Active and inactive are the calls of the source. How the source made its calls: active means hit-call score of the fitted dose curve at least 0.9, where 1 is the maximum; inconclusive means response in the unintended direction; inactive means score below 0.9.
measuredProperty: AC50

CCCCC(CC)COC(=O)c1ccccc1C(=O)OCC(CC)CCCC (configuration not stated)    inactive
CCOP(=S)(OCC)SCn1c(=O)oc2cc(Cl)ccc21    inactive
COc1ccc(C(c2ccc(OC)cc2)C(Cl)(Cl)Cl)cc1    8.82 µM (active)
COP(=S)(OC)Oc1nc(Cl)c(Cl)cc1Cl    43 µM (active)
COC(=O)N(OC)c1ccccc1COc1ccn(-c2ccc(Cl)cc2)n1    inactive

Give AC50 for C=CC1(C)OC(=O)N(c2cc(Cl)cc(Cl)c2)C1=O (configuration not stated)
inactive

Give AC50 for CCCN(CCC)c1c([N+](=O)[O-])cc(S(N)(=O)=O)cc1[N+](=O)[O-]
inactive
